# System: HCT-116 colon
# assay summary: NCI tumour cell line growth inhibition, 48 h
endpoint name: TGI

Inquiry: Answer with reported TGI of "CCCCCC/C=C\CCCCCCCCCc1cccc(OC)c1O"
Reply text: > 100 µM

Inquiry: Answer with reported TGI of O=C(c1nc2ccc(Cl)cc2[nH]c1=O)C(O)c1cccc([N+](=O)[O-])c1 (configuration not stated)
Reply text: > 100 µM

Inquiry: Answer with reported TGI of "Nc1nc(N)c2cc(S(=O)(=O)c3ccccc3)ccc2n1"
Reply text: > 100 µM

Inquiry: Answer with reported TGI of "CN1CCN(c2ccc(NC(=O)c3cncnc3Nc3ccc4c(ccn4Cc4cccc(F)c4)c3)cc2)CC1"
Reply text: 3.55 µM

Inquiry: Answer with reported TGI of "CC1=C(c2ccccc2)CON(c2ccccc2)C1"
Reply text: 79.9 µM

Inquiry: Answer with reported TGI of "COc1ccc(-c2cncn2-c2ccc(-c3nc4cc(OC)c(OC)c(OC)c4s3)cc2)cc1N"
Reply text: > 100 µM

Inquiry: Answer with reported TGI of COC(=O)C1=C(C(=O)OC)N(c2ccncc2)C(c2ccco2)=CC1c1ccccc1[N+](=O)[O-] (configuration not stated)
Reply text: 2.7 µM

Inquiry: Answer with reported TGI of CC(NNC(=S)N1CCN(c2ccccn2)CC1)c1cccc[n+]1[O-] (configuration not stated)
Reply text: 13.7 µM

Inquiry: Answer with reported TGI of "COc1c(OC)c(OC)c2c(=O)c(OC)c(-c3ccc4c(c3)OCO4)oc2c1OC"
Reply text: > 100 µM

Inquiry: Answer with reported TGI of "COc1ccc(-n2nc(C(=O)c3ccccc3)c3nn4c(=O)cc(-c5ccccc5)nc4nc32)cc1"
Reply text: > 100 µM

Inquiry: Answer with reported TGI of "Oc1cc(F)cc2cccnc12"
Reply text: > 20.9 µM

Inquiry: Answer with reported TGI of O=C1/C(=C\c2cccc(Oc3ccccc3)c2)SC(c2ccccc2)N1Cc1ccccc1 (configuration not stated)
Reply text: 34 µM

Inquiry: Answer with reported TGI of "Cc1cc(=O)[nH]c(Sc2ccc([N+](=O)[O-])cc2[N+](=O)[O-])n1"
Reply text: > 34.6 µM

Inquiry: Answer with reported TGI of "Cc1ccc([N+](=O)[O-])cc1NC(=O)/C(CC(=O)c1sc(C(N)=S)nc1C)=N\N"
Reply text: > 100 µM

Inquiry: Answer with reported TGI of "C#CCn1c2c(c3ccccc3c1=O)C(=O)c1ccccc1-2"
Reply text: > 100 µM

Inquiry: Answer with reported TGI of "COc1cc(CO)cc2c1[nH]c1ccccc12"
Reply text: > 25 µM

Inquiry: Answer with reported TGI of "CCC1=NC(N/N=C/c2ccco2)=N/C1=C\c1ccco1"
Reply text: > 100 µM

Inquiry: Answer with reported TGI of "CN(CCc1ccccn1)c1ccc2c(c1)Cc1ccccc1-2"
Reply text: > 100 µM

Inquiry: Answer with reported TGI of COC(=O)[C@H]1C2CC[C@@H]3C45C[C@@H](c6ccoc6)O[C@@H]4O[C@@H](O2)C31CCC5C (some centres not stated)
Reply text: > 100 µM

Inquiry: Answer with reported TGI of "N#Cc1cc2c(=S)[nH]c(=S)[nH]c2nc1SCc1ccccc1"
Reply text: > 100 µM

Inquiry: Answer with reported TGI of CC(C(=O)c1ccc(O)cc1)C1(O)C(=O)Nc2c(Cl)cc(Cl)cc21 (configuration not stated)
Reply text: > 100 µM

Inquiry: Answer with reported TGI of CN(C(=O)C12C3(C(=O)O)C4C5(C(=O)O)C3C1(C(=O)O)C5C42C(=O)O)C(C)(C)C (configuration not stated)
Reply text: > 100 µM

Inquiry: Answer with reported TGI of "O=C(O)c1ccc(C2=Nc3cccc4cccc(c34)N2)cc1"
Reply text: > 100 µM

Inquiry: Answer with reported TGI of "Cc1[nH]c2[nH]c(=S)nc(NC(N)=S)c2c1Cc1ccccc1"
Reply text: > 100 µM

Inquiry: Answer with reported TGI of CCC1C[N+]2=C(c3cc(OC)c(OC)cc3CC2)c2c1cc1n2CCc2cc(OC)c(OC)cc2-1 (configuration not stated)
Reply text: 13.1 µM

Inquiry: Answer with reported TGI of "CCOC(=O)/C=C(\C(=O)OCC)n1cc(C)c(=O)n(Cc2cn(COCCOC(C)=O)nn2)c1=O"
Reply text: 80.4 µM

Inquiry: Answer with reported TGI of "NC1=CC(=O)C(=O)c2ccccc21"
Reply text: 28 µM

Inquiry: Answer with reported TGI of Cc1ccc([N+](=O)[O-])cc1S(=O)(=O)Nc1ccc(C2=NN(C(=O)c3ccccc3)C(c3ccccc3O)C2)cc1 (configuration not stated)
Reply text: 28.4 µM

Inquiry: Answer with reported TGI of "CCOC(=O)/C=C(/C(=O)OCC)n1cc(C)c(=O)[nH]c1=O"
Reply text: 5.74 µM

Inquiry: Answer with reported TGI of "O=C(Cc1ccccc1)Nc1nc2ccc(Cl)cc2c2nc(-c3ccco3)nn12"
Reply text: > 100 µM

Inquiry: Answer with reported TGI of Cc1ccc(C2SCc3nc4ccccc4n32)cc1 (configuration not stated)
Reply text: 14 µM

Inquiry: Answer with reported TGI of "CN(C)c1ccc(/C=C2\C[C@H]3[C@@H]4CC=C5C[C@@H](O)CC[C@]5(C)[C@H]4CC[C@]3(C)[C@H]2O)cc1"
Reply text: 28.1 µM

Inquiry: Answer with reported TGI of "CC(C)(C)CC(C)(C)c1cc2c(O)c(c1)Cc1cc(C(C)(C)CC(C)(C)C)cc(c1O)Cc1cc(C(C)(C)CC(C)(C)C)cc(c1O)Cc1cc(C(C)(C)CC(C)(C)C)cc(c1O)Cc1cc(C(C)(C)CC(C)(C)C)cc(c1O)Cc1cc(C(C)(C)CC(C)(C)C)cc(c1O)Cc1cc(C(C)(C)CC(C)(C)C)cc(c1O)Cc1cc(C(C)(C)CC(C)(C)C)cc(c1O)C2"
Reply text: > 100 µM

Inquiry: Answer with reported TGI of "Cc1cccc(/C=N/N=C(\N)NO)n1"
Reply text: > 100 µM

Inquiry: Answer with reported TGI of "Nc1csc(-c2scc3c2OCCO3)c1N"
Reply text: 46.4 µM

Inquiry: Answer with reported TGI of "Fc1c(F)c(F)c(CSc2nc3ccccc3[nH]2)c(F)c1F"
Reply text: > 100 µM

Inquiry: Answer with reported TGI of "Cc1c(-c2cc(-c3ccccc3)n[nH]c2=O)c2ccccc2n1C"
Reply text: > 100 µM
